Experiment: Liver microsome metabolic stability test, rat
Type: in vitro ADME
Settings: 60 min
The reader will find reported %Remaining (60 min) values listed item by item below.
MEASURED ATTRIBUTE: %Remaining (60 min) (%)

[[record]]
compound = "Nc1nccn2c(C3CCC(CO)OC3)nc(-c3ccc(C(=O)Nc4cc(C(F)(F)F)ccn4)cc3)c12 (single isomer, unassigned) [Compound 109-P1]"
readout_number = 72.7

[[record]]
compound = "Nc1nccn2c(C3CC[C@@H](CO)OC3)nc(-c3ccc(C(=O)Nc4ccccn4)cc3F)c12 (stereo partly shown) [Compound 1-B]"
readout_number = 63.7

[[record]]
compound = "Nc1nccn2c(C3CCC(CO)OC3)nc(-c3ccc(Oc4c(F)cccc4F)cc3)c12 (stereo not shown) [Compound 64]"
readout_number = 8.5

[[record]]
compound = "Nc1nccn2c(C3CCC(CO)OC3)nc(-c3ccc(C(F)(F)c4ccccc4)cc3)c12 (stereo not shown) [Compound 111]"
readout_number = 46


====

Assay: Liver microsome metabolic stability test, rat
Assay type: in vitro ADME
Conditions: 60 min
MEASURED ATTRIBUTE: %Remaining (60 min) (%)

[[record]]
compound = "COc1cccc(Oc2ccc(-c3nc(C4CCC(CO)OC4)n4ccnc(N)c34)cc2)c1C#N (single isomer, unassigned) [Compound 89-P1]"
measured_attribute = "%Remaining (60 min)"
units_text = "%"
readout_number = 61.0

[[record]]
compound = "CC#CC(=O)N1CC[C@@H](n2c(=O)n(-c3ccc(Oc4ccccc4)cc3)c3c(N)ncnc32)C1 [Tirabrutinib, reference compound]"
measured_attribute = "%Remaining (60 min)"
units_text = "%"
readout_number = 37.0

[[record]]
compound = "Nc1nccn2c(C34CCC(CO)(CC3)OC4)nc(-c3ccc(C(F)(F)c4cccc(Cl)c4F)cc3)c12"
measured_attribute = "%Remaining (60 min)"
units_text = "%"
readout_number = 25.8

[[record]]
compound = "Nc1nccn2c(C3CCC(CO)OC3)nc(-c3ccc(Oc4ccccc4)cc3)c12 (stereo not drawn)"
measured_attribute = "%Remaining (60 min)"
units_text = "%"
readout_number = 14.6

[[record]]
compound = "N#Cc1ccnc(NC(=O)c2ccc(-c3nc(C4CCC(CO)OC4)n4ccnc(N)c34)cc2)c1 (stereo not drawn)"
measured_attribute = "%Remaining (60 min)"
units_text = "%"
readout_number = 85.7

[[record]]
compound = "Nc1nccn2c(C34CCC(CO)(CC3)OC4)nc(-c3ccc(C(=O)Nc4ccccn4)cc3)c12"
measured_attribute = "%Remaining (60 min)"
units_text = "%"
readout_number = 90.3

[[record]]
compound = "Nc1nccn2c(C3CCC(CO)OC3)nc(-c3ccc(C(=O)c4ccccc4)cc3)c12 (stereo not drawn)"
measured_attribute = "%Remaining (60 min)"
units_text = "%"
readout_number = 24.5

[[record]]
compound = "Nc1nccn2c(C34CCC(CO)(CC3)OC4)nc(-c3ccc(C(=O)Nc4cc(C(F)(F)F)ccn4)cc3)c12"
measured_attribute = "%Remaining (60 min)"
units_text = "%"
readout_number = 64.1

[[record]]
compound = "Nc1nccn2c(C3CCC(CO)OC3)nc(-c3ccc(Oc4cccc(C(F)(F)F)c4F)cc3)c12 (stereo not drawn)"
measured_attribute = "%Remaining (60 min)"
units_text = "%"
readout_number = 7.9

[[record]]
compound = "Nc1nccn2c(C34CCC(CO)(CC3)OC4)nc(-c3ccc(C(F)(F)c4ccccc4)cc3)c12"
measured_attribute = "%Remaining (60 min)"
units_text = "%"
readout_number = 49

[[record]]
compound = "Nc1nccn2c([C@@H]3CC[C@H](CO)OC3)nc(-c3ccc(C(=O)Nc4ccccn4)cc3)c12 (single isomer, unassigned) [Compound 2-A-P1]"
measured_attribute = "%Remaining (60 min)"
units_text = "%"
readout_number = 95.5

[[record]]
compound = "Nc1nccn2c(C34CCC(CO)(CC3)OC4)nc(-c3ccc(C(F)(F)c4ccccc4Cl)cc3)c12"
measured_attribute = "%Remaining (60 min)"
units_text = "%"
readout_number = 14.2

[[record]]
compound = "Cc1cc(Nc2ncnc3ccc(NC4=NC(C)(C)CO4)cc23)ccc1Oc1ccn2ncnc2c1 [Tucatinib, reference compound]"
measured_attribute = "%Remaining (60 min)"
units_text = "%"
readout_number = 38.2

[[record]]
compound = "COc1cccc(Oc2ccc(-c3nc(C4CCC(CO)OC4)n4ccnc(N)c34)cc2)c1 (stereo not drawn)"
measured_attribute = "%Remaining (60 min)"
units_text = "%"
readout_number = 39.5

[[record]]
compound = "COc1cccc(Oc2ccc(-c3nc(C4CCC(CO)OC4)n4c(Cl)cnc(N)c34)cc2)c1F (stereo not drawn)"
measured_attribute = "%Remaining (60 min)"
units_text = "%"
readout_number = 3.0

